assay: Part A single-ascending-dose plasma PK in healthy subjects; format: in vivo, human; conditions: human, plasma, iv, 8 g, part A cohort 7, single 8.0 g, 3-h i.v. infusion
ENDPOINT LABEL: clearance
Respond with the figure and its unit, in that order.

// returns reported clearance for input CC1=C[C@@H]2CN(C(=O)N2OS(=O)(=O)O)[C@@H]1C(N)=O [DUR, Durlobactam]
190 mL/min

====

Test: Part A single-ascending-dose plasma PK in healthy subjects
Type: in vivo, human
Conditions: human, plasma, iv, 1 g, part A cohort 3, single 1.0 g, 3-h i.v. infusion; read-out: Vss
Description: This was a 4-part, double-blind, placebo-controlled study (15 cohorts) of DUR administered as a 3-h i.v. infusion (except for cohort 4, in which a 2-h i.v. infusion was evaluated) (see Table S5 in the supplemental material). […] AUC was calculated using the log-linear trapezoidal rule. […]
ENDPOINT LABEL: Vd (L)
Give the value in L but do not write L after it.

// returns reported Vd for input CC1=C[C@@H]2CN(C(=O)N2OS(=O)(=O)O)[C@@H]1C(N)=O [DUR, Durlobactam]
25.7

====

assay: Urine PK (urinary excretion, renal clearance) in healthy subjects; conditions: human, urine, intravenous, 2 g, CLr, mean, part B cohort 12, following the final dose on Day 8, 2.000 g
ENDPOINT LABEL: CL renal (mL/min)
Give the value in mL/min but do not write mL/min after it.

// returns reported CL renal for input CC1=C[C@@H]2CN(C(=O)N2OS(=O)(=O)O)[C@@H]1C(N)=O [DUR, Durlobactam]
108

====

assay: Protein binding in human plasma; type: in vitro ADME
ENDPOINT LABEL: fraction unbound

// returns reported fraction unbound for input `CC1=C[C@@H]2CN(C(=O)N2OS(=O)(=O)O)[C@@H]1C(N)=O`
0.1

====

test: Part A single-ascending-dose plasma PK in healthy subjects; type: in vivo, human; settings: human, plasma, iv, 0.5 g, part A cohort 2, single 0.5 g, 3-h i.v. infusion, mean ± SD, n=6; read-out: t1/2 (converted)
ENDPOINT LABEL: half-life (h)
Give the value in h but do not write h after it.

// returns reported half-life for input `CC1=C[C@@H]2CN(C(=O)N2OS(=O)(=O)O)[C@@H]1C(N)=O`
2

====

assay: Part A single-ascending-dose plasma PK in healthy subjects; format: in vivo, human; conditions: human, plasma, iv, 0.25 g, part A cohort 1, single 0.25 g, 3-h i.v. infusion; read-out: AUC0–t
ENDPOINT LABEL: AUC(0-t)

// returns reported AUC(0-t) for input `CC1=C[C@@H]2CN(C(=O)N2OS(=O)(=O)O)[C@@H]1C(N)=O`
25400 ng·h/mL

====

assay: Part B multiple-ascending-dose plasma PK in healthy subjects; assay type: in vivo, human; settings: human, plasma, iv; part B cohort 12, 2.0 g q6h 3-h i.v. infusion, day 8
ENDPOINT LABEL: half-life (h)
Give the value in h but do not write h after it.

// returns reported half-life for input `CC1=C[C@@H]2CN(C(=O)N2OS(=O)(=O)O)[C@@H]1C(N)=O`
10.1

====

experiment: Part C single-dose drug-drug interaction plasma PK in healthy subjects; conditions: human, in vivo, AUC0–24, part C cohort 13, DUR 1 g + SUL 1 g coadministered, day 5
ENDPOINT LABEL: AUC(0-t) (ng·h/mL)
Give the value in ng·h/mL but do not write ng·h/mL after it.

// returns reported AUC(0-t) for input `CC1(C)[C@H](C(=O)O)N2C(=O)C[C@H]2S1(=O)=O`
73000

Cited source for all entries: paper PMC7318034
